Values from PubChem BioAssay

# tested system: ATP-binding cassette sub-family B member 6 (Homo sapiens)
# protocol summary: blockers of ABCB6-driven porphyrin uptake – K562-ABCB6 cells, flow cytometry, validation set, pilot screen (AID 588550);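 further: 0% = DMSO wells and 100% = benzethonium chloride 70 µM positive control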
# condition summary: K562-ABCB6 porphyrin accumulation, 1 h, at 10 µM, active compounds read high
Calls of active or inactive are those of the source.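 How the source made its calls: active means inhibition above the screen-wide mean plus 3 SD, about 51%; inactive means the rest.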
Recorded measurements of inhibition, one per entry

Please review the following examples before continuing.
CCc1cc(=O)oc2cc3occ(-c4ccc(OC)c(F)c4)c3cc12 15% (inactive)
O=C(/C=C/Sc1ccccc1)c1ccccc1 -13% (inactive)
O=C(COc1ccc(F)cc1)OCCN1CCOCC1 -1% (inactive)

Next:
Exam item: Consider the compound shown here: "COCCCN1C(=O)/C(=C\c2cccs2)C(C(=O)OC)=C1C" What is its recorded inhibition?
Marked response: 5% (inactive)
